molecular target: recombinant human liver glycogen phosphorylase (HLGPa) (Homo sapiens, UniProt P06737); test: Measurement of liver glycogen phosphorylase activity (enzyme inhibitory activity against HLGPa); conditions: Sf9 cell lysate expressing recombinant enzyme; reverse reaction (glycogen synthesis from G1-P), phosphate by malachite green, 60 min room temperature
READOUT TYPE: IC50 (nM)

O=C(NN1C(=O)CCN(c2ccccc2)C1=O)c1cc2cc(F)ccc2[nH]1 [Example 3-9]
730
O=C(O)COc1cccc(C(=O)NNC(=O)c2cc3cc(Cl)ccc3[nH]2)c1 [Example 1-70]
150
O=C(Nn1c(=O)[nH]c2ccccc2c1=O)c1cc2cc(Cl)ccc2[nH]1 [Example 2]
16
O=C(NN1C(=O)CCN(c2cccc(Cl)c2)C1=O)c1cc2cc(Cl)ccc2[nH]1 [Example 3-11]
520
CS(=O)(=O)O.N=C(NNC(=O)c1cc2cc(Cl)ccc2[nH]1)c1ccccc1F [Example 6-20, methanesulfonate]
110

1 = O=C(NNC(=O)c1cc2cc(Cl)ccc2[nH]1)c1ccc(-c2ncn[nH]2)cc1 [Example 1-73]
2 = Cc1cccc(N2CCC(=O)N(NC(=O)c3cc4cc(Cl)ccc4[nH]3)C2=O)c1 [Example 3-12]
3 = O=C(Nc1ccccc1C(=O)NNC(=O)c1cc2cc(Cl)ccc2[nH]1)OCCCO [Example 1-112]
4 = COC(=O)COc1cccc(C(=O)NNC(=O)c2cc3cc(Cl)ccc3[nH]2)c1 [Example 1-69]
5 = O=C(NNC(=O)c1ccc(F)cc1F)c1cc2cc(Cl)ccc2[nH]1 [Example 1-26]
Ranking field: IC50; order: falling. Please, when replying, give the labels in the order that was requested.
2, 4, 1, 3, 5
(2: 680 nM, 4: 150 nM, 1: 76 nM, 3: 28 nM, 5: 18 nM)

====

Target: recombinant human liver glycogen phosphorylase (HLGPa) (Homo sapiens, UniProt P06737)
Sequence (P06737 1-847): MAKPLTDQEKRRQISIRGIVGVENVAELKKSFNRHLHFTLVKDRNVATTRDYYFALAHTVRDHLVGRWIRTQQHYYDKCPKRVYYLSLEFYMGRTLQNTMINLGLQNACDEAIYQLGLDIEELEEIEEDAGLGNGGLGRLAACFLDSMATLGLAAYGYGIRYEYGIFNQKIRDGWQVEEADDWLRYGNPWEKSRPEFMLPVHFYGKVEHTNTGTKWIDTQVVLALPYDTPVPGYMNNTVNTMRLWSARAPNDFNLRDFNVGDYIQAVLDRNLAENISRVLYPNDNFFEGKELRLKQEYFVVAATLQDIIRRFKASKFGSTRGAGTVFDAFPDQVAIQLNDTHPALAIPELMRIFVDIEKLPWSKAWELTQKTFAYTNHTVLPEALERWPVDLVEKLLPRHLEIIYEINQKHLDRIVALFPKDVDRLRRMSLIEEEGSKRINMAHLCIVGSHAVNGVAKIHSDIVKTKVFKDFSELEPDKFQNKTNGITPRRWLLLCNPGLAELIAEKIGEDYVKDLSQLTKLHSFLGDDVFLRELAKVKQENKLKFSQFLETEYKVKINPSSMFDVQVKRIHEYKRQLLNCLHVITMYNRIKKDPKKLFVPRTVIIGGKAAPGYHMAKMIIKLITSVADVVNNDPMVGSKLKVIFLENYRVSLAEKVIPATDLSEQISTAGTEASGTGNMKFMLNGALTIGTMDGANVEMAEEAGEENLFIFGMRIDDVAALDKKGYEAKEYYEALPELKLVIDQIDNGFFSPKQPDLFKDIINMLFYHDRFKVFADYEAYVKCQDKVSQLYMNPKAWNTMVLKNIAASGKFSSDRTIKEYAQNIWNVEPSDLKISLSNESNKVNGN
Assay: Measurement of liver glycogen phosphorylase activity (enzyme inhibitory activity against HLGPa)
Settings: Sf9 cell lysate expressing recombinant enzyme; reverse reaction (glycogen synthesis from G1-P), phosphate by malachite green, 60 min room temperature
READOUT TYPE: IC50 (nM)

CC(C(=O)NNC(=O)c1cc2cc(Cl)ccc2[nH]1)c1ccccc1 (centres unmarked) [Example 5-15]
63
N=C(NNC(=O)c1cc2cc(Cl)ccc2[nH]1)c1ccccc1C(F)(F)F [Example 1-139]
380
O=C(NNC(=O)C1(c2ccccc2)CCCCC1)c1cc2cc(Cl)ccc2[nH]1 [Example 5-14]
300
N=C(NNC(=O)c1cc2cc(Cl)ccc2[nH]1)c1ccc(F)c(F)c1 [Example 6-23, methanesulfonate]
67
O=C(NNC(=O)c1cc2cc(Cl)ccc2[nH]1)c1ccsc1 [Example 1-83]
880

P = CCCn1c(=O)n(NC(=O)c2cc3cc(Cl)ccc3[nH]2)c(=O)c2ccccc21 [Example 2-30]
Q = Cc1ccc(N)c(C(=O)NNC(=O)c2cc3cc(Cl)ccc3[nH]2)c1 [Example 1-97]
Lab log: flag the item ( P or Q ) with the smaller IC50 figure. Give the chosen item's label as your response.
Q

====

biological target: recombinant human liver glycogen phosphorylase (HLGPa) (Homo sapiens, UniProt P06737); assay: Measurement of liver glycogen phosphorylase activity (enzyme inhibitory activity against HLGPa); details: Sf9 cell lysate expressing recombinant enzyme; reverse reaction (glycogen synthesis from G1-P), phosphate by malachite green, 60 min room temperature
pIC50: −log10 of the molar value.
READOUT TYPE: pIC50

A = Cc1ccc2[nH]c(C(=O)Nn3c(=O)[nH]c4ccccc4c3=O)cc2c1
B = N=C(NNC(=O)c1cc2cc(Cl)ccc2[nH]1)c1ccco1
Lab log: flag the item ( A or B ) with the smaller pIC50 figure. Give the chosen item's label as your response.
B
(B: 6.48, A: 7.62)

A = CN(C)C(=O)COc1ccccc1C(=O)NNC(=O)c1cc2cc(Cl)ccc2[nH]1
B = O=C(NNC(=O)c1ccc(Cl)s1)c1cc2cc(Cl)ccc2[nH]1
Which has the higher pIC50, A or B ? Give the chosen item's label as your response.
A

a = O=C(NNC(=O)c1ccccc1Cl)c1cc2cc(Cl)ccc2[nH]1
b = Cl.N=C(NNC(=O)c1cc2cc(Cl)ccc2[nH]1)c1ccccc1F [Example 6-19, hydrochloride]
c = N=C(NNC(=O)c1cc2cc(Cl)ccc2[nH]1)c1c(F)cccc1Cl
Ranking field: pIC50; order: falling. Please, when replying, give the labels in the order that was requested.
b, a, c

A = O=C(NNC(=O)c1sccc1Cl)c1cc2cc(Cl)ccc2[nH]1
B = COc1ccc2[nH]c(=O)n(NC(=O)c3cc4cc(C)ccc4[nH]3)c(=O)c2c1
C = O=C(NNC(=O)c1cccc2ccccc12)c1cc2cc(Cl)ccc2[nH]1
D = O=C(NNC(=O)c1cc2ccsc2[nH]1)c1cc2cc(Cl)ccc2[nH]1
Please produce an ascending ranking of these molecules based on pIC50. Please, when replying, give the labels in the order that was requested.
B, D, C, A

====

biological target: recombinant human liver glycogen phosphorylase (HLGPa) (Homo sapiens, UniProt P06737); test: Measurement of liver glycogen phosphorylase activity (enzyme inhibitory activity against HLGPa); conditions: Sf9 cell lysate expressing recombinant enzyme; reverse reaction (glycogen synthesis from G1-P), phosphate by malachite green, 60 min room temperature
READOUT TYPE: IC50

Here are 4 compounds together with their reported answers.
CN(C)C(=O)Oc1ccccc1C(=O)NNC(=O)c1cc2cc(Cl)ccc2[nH]1 [Example 1-65]
> 100 nM
O=C(NN1CCN(c2ccccc2)C1=O)c1cc2cc(Cl)ccc2[nH]1 [Example 4-5]
> 100 nM
Cc1ccc2[nH]c(C(=O)Nn3c(=O)[nH]c4cc(F)c(F)cc4c3=O)cc2c1 [Example 2-26]
210 nM
CCc1ccc2[nH]c(C(=O)Nn3c(=O)[nH]c4ccccc4c3=O)cc2c1 [Example 2-25]
> 100 nM

Now turn to the next compound.
Record CN(NC(=O)c1cc2cc(Cl)ccc2[nH]1)C(=O)Nc1ccccc1 [Example 5-8] . Reported IC50: > 100 nM

====

target: recombinant human liver glycogen phosphorylase (HLGPa) (Homo sapiens, UniProt P06737); experiment: Measurement of liver glycogen phosphorylase activity (enzyme inhibitory activity against HLGPa); conditions: Sf9 cell lysate expressing recombinant enzyme; reverse reaction (glycogen synthesis from G1-P), phosphate by malachite green, 60 min room temperature
pIC50: −log10 of the molar value.
READOUT TYPE: pIC50

Here are 5 compounds together with their reported answers.
O=C(NN1C(=O)[C@H]2CCCN2C1=O)c1cc2cc(Cl)ccc2[nH]1
< 7.00
Nc1ccccc1C(=O)NNC(=O)c1cc2cc(Br)ccc2[nH]1
< 7.00
CC(C)c1ccc2[nH]c(C(=O)Nn3c(=O)[nH]c4cc(F)ccc4c3=O)cc2c1
< 7.00
O=C(NN1C(=O)N[C@@H](Cc2ccccc2)C1=O)c1cc2cc(Cl)ccc2[nH]1
< 7.00
O=C(NN1C(=O)N[C@H](c2ccccc2)C1=O)c1cc2cc(Cl)ccc2[nH]1
7.19

Record "O=C(NN1C(=O)N[C@@H](c2ccc(O)cc2)C1=O)c1cc2cc(Cl)ccc2[nH]1" . Reported pIC50: 7.12

Record "O=C(NN1C(=O)CN(c2ccc(F)cc2)C1=O)c1cc2cc(Cl)ccc2[nH]1" . Reported pIC50: < 7.00
